assay: Toxicity liver stage against HepG2, at 10uM; assay type: cell-based; set-up: test concentration 10 uM, cell line HepG2-A16-CD81EGFP; details: human, HepG2-A16-CD81EGFP cells; read-out: INHIBITION
I'd be grateful if you could share measured cytotoxicity at 10 µM for these entries.
The reply should contain only the number, in %.

# cytotoxicity at 10 µM of Cc1cnc(CNCc2cn(CCN3CCSCC3)nc2C)cn1 = -0.629

// NC(=O)CN1CCC2(CC1)C[C@@H](O)[C@H](c1ccccc1)NC2=O : cytotoxicity at 10 µM value = -23

Lab book: cytotoxicity at 10 µM of CCCC(C#N)NC(=O)CCCOc1cccc(C(C)=O)c1 (stereo not drawn) noted as -46.2

For record Cc1ccc(N2CCC(C(=O)NC3CCc4nccn4C3)CC2)nc1 (stereo not drawn) the listed cytotoxicity at 10 µM is -7.39

The compound CN(Cc1ccco1)C(=O)NCc1ccnc(SC(C)(C)C)c1 showed cytotoxicity at 10 µM equal to 14.4

Entry CN(C)c1cc(CNC(=O)Nc2ccc(F)cc2)ccn1 , cytotoxicity at 10 µM reported as 0.0418

Sample CCc1nc(C2CCCN(C(=O)CN(C)S(C)(=O)=O)C2)no1 (stereo not drawn) ; cytotoxicity at 10 µM observed: -3.22

Looking up c1coc(CN2CCc3ncnc(C4CCOC4)c3CC2)c1 (stereo not drawn) , I found its cytotoxicity at 10 µM recorded as 10.2

// cytotoxicity at 10 µM lookup, compound = Cc1nc(C2CCCN(C(=O)Cn3ccccc3=O)C2)no1 (stereo not drawn) , result: -9.37

Data point: Cc1nn(C)c(N2CCOCC2)c1CNC(C(N)=O)c1ccccc1 (stereo not drawn) ; cytotoxicity at 10 µM = -6.86

cytotoxicity at 10 µM reading for COc1ccc2[nH]nc(CN3CCC(C(C)N4CCCC4)CC3)c2c1 (stereo not drawn) : -4.13

Query COCCN1C(=O)CCC12CCC(NC(=O)c1cc(C)on1)CC2 (stereo not drawn) yields cytotoxicity at 10 µM of 3.94

Entry Cc1ccoc1C(=O)NC1CCN(Cc2ccccc2C#N)CC1 — recorded cytotoxicity at 10 µM = -3.51

###

experiment: Toxicity liver stage against HepG2, at 10uM; type: cell-based; set-up: test concentration 10 uM, cell line HepG2-A16-CD81EGFP; details: human, HepG2-A16-CD81EGFP cells; read-out: INHIBITION
What cytotoxicity at 10 µM was measured for each of the following?
Unit % implied. Number only.

Given item NC(=O)c1csc(N2CCN(Cc3cccc4nsnc34)CC2)n1 , the value recorded as its cytotoxicity at 10 µM is 0.5

Record CN(C)C(=O)CO[C@H]1COCCN(C2CCOCC2)C1 , field cytotoxicity at 10 µM: 3.64

Memo: O=C(c1ccnnc1)N1CCn2cc(CN3CCCCC3)nc2C1 , reported cytotoxicity at 10 µM: -74.9

For record CNc1cccc(C2CCCN(C(=O)c3ccncc3)C2)n1 (configuration not stated) the listed cytotoxicity at 10 µM is -4.02

Entry O=C1Nc2ccccc2/C1=C1\CCCN1 — recorded cytotoxicity at 10 µM = 5.02

# compound COc1ccc(/C=C/CN2CCN(c3ncccc3C(N)=O)CC2)cc1 ; its cytotoxicity at 10 µM = -8.88

Short answer for Cc1ccccc1C(C)NC(=O)c1ccc(=O)n(C)c1 (configuration not stated) : cytotoxicity at 10 µM was 4.31

For this compound ( Cn1nc(CNC(=O)c2ccc(OC(F)(F)F)cc2)c2c1CCOC2 ), measured cytotoxicity at 10 µM is 7.03

The compound identified as COC(=O)C1CN(CC(=O)Nc2cc(F)ccc2F)c2ccccc21 (configuration not stated) registered its cytotoxicity at 10 µM at 8.32

The measured cytotoxicity at 10 µM associated with Cc1cc(NC(=O)Cn2cnc(-c3cccs3)cc2=O)no1 reads -0.243

Record summary for COc1cc(OC)cc(C2(O)CCN(Cc3nc(C)c(C)o3)CC2)c1 : reported cytotoxicity at 10 µM = -7.06

For reference, reported cytotoxicity at 10 µM for Cc1noc([C@H]2C[C@H]3OCC[C@H]3N(Cc3scnc3C)C2)n1 stands at -73.4

Data point: CCC(=O)NC1CCCN(c2cncc(OCc3ccccc3)n2)C1 (configuration not stated) ; cytotoxicity at 10 µM = -2.08

Record CNc1[nH]nc(N)c1C(=O)Nc1ccccc1 , field cytotoxicity at 10 µM: 6.56

Per the records, this compound ( CCc1nnc2n1CCN(Cc1ccc3c(c1)OCCO3)C2 ) has cytotoxicity at 10 µM equal to -6.61

In plain terms, O=C(NCCC(=O)N1CCCc2ccccc21)c1cc(F)cc(F)c1 has a documented cytotoxicity at 10 µM of -6.14

Lab book: cytotoxicity at 10 µM of CC(C)n1ncc2c1NC(=O)C(C#N)C21CCCC1 (configuration not stated) noted as -4.1

###

Exercise: state measured cytotoxicity at 10 µM for each of the molecules provided.
test: Toxicity liver stage against HepG2, at 10uM; format: cell-based; set-up: test concentration 10 uM, cell line HepG2-A16-CD81EGFP; conditions: human, HepG2-A16-CD81EGFP cells; read-out: INHIBITION
Kindly answer with a numeric value in %, unit omitted.

What the record says about O=C(C1CC1)N1C[C@H]2CCCN(S(=O)(=O)c3ccc4c(c3)CCC4)[C@H]2C1 : cytotoxicity at 10 µM is 8.52

Reported cytotoxicity at 10 µM ( CCn1nc2c(cc1=O)CN(Cc1nc(C)c3ccccc3n1)CC2 ) = -9.35

So for O=C1OC2(CCNCC2)CN1CC(=O)N1CCCC1c1ccco1 (configuration not stated) , the logged cytotoxicity at 10 µM turned out to be -14.6

Looking up Cc1nc(C2CCCN(C(=O)c3cc(C)sc3C)C2)no1 (configuration not stated) , I found its cytotoxicity at 10 µM recorded as 6.86

So, O=C(c1cc(Cl)ccc1OC1CCN(C2CCCC2)CC1)N1CCCO1 ? Its cytotoxicity at 10 µM was -2.54

Lab note: COCCN1CCN(Cc2cccc(OCC(N)=O)c2)CC1C (configuration not stated) gave cytotoxicity at 10 µM of 2.43

Record COc1cc(C(=O)N2CCC3(CC2)Nc2ccccc2NC3=O)ccn1 . Reported cytotoxicity at 10 µM: 0.701

###

assay: Toxicity liver stage against HepG2, at 10uM; format: cell-based; set-up: test concentration 10 uM, cell line HepG2-A16-CD81EGFP; settings: human, HepG2-A16-CD81EGFP cells; read-out: INHIBITION
For each entry below, report its cytotoxicity at 10 µM value.
Supply the numeric figure in %, leaving out any unit text.

For CCCn1nc(C)c(CNC(=O)C2COc3ccc(OC)cc3C2)c1C (stereo not given) the molecule record lists cytotoxicity at 10 µM as -7.79

cytotoxicity at 10 µM measured on Cc1cc(N2CCC(Cc3ncccn3)C2)ncn1 (stereo not given) = 0.146

The reported cytotoxicity at 10 µM of the molecule c1cc(CNCc2ccnc(N3CCCC3)c2)c2c(c1)OCO2 was 3.21

# cytotoxicity at 10 µM (molecule: Cc1ccccc1C(=O)N1C[C@@H]2COC[C@]2(COCc2cccnc2)C1 ) is 4.44

Noted for Cc1nnc(N2C[C@H](OCC3CCCC3)[C@H]3OCCC[C@H]32)s1 : its cytotoxicity at 10 µM reads 5.16

###

test: Toxicity liver stage against HepG2, at 10uM; format: cell-based; parameters: test concentration 10 uM, cell line HepG2-A16-CD81EGFP; conditions: human, HepG2-A16-CD81EGFP cells; read-out: INHIBITION
Quantity: cytotoxicity at 10 µM (%)
Please respond with the number in % and leave the unit unwritten.

Recorded cytotoxicity at 10 µM (compound O=C(NCCC(=O)N1CCCCCC1)c1c(O)cc(F)cc1F ): -1.8

get_value(item= CCn1ccnc1CN1CCCN(C(=O)c2cccn2C)CC1 , readout=cytotoxicity at 10 µM) returns -8.93

The recorded cytotoxicity at 10 µM for CCN(C(=O)CNc1cc(C)c(F)cc1C(N)=O)C1CC1 is 2.14

// field: cytotoxicity at 10 µM; key: CC(Cn1ccnc1)NS(=O)(=O)c1ccc(C#N)c(Cl)c1 (configuration not stated) ; value = -9.97

Record summary for CC(C)c1n[nH]c(C2CN(CC(=O)N(C)Cc3ccco3)CCO2)n1 (configuration not stated) : reported cytotoxicity at 10 µM = -5.92

The reported value for O=C1[C@H]2CN(Cc3ccc(F)cc3)C[C@H]2CN1c1ccsc1 in terms of cytotoxicity at 10 µM is -87.8

Lab note: measured cytotoxicity at 10 µM of COc1ccc(CC(=O)N(C)c2cccnc2N(C)C)c(Cl)c1 was 5.71

For this compound ( COCC(C)NC(=O)CSc1ccc(F)c(Cl)c1 (configuration not stated) ), measured cytotoxicity at 10 µM is -48

The value of cytotoxicity at 10 µM measured for the compound CC(NC(=O)CCCC(=O)c1cccs1)c1nnc2n1CCC2 (configuration not stated) turned out to be -10.2

Record O=C(c1cc(-n2cccn2)ccn1)N1CCOc2ccncc21 , field cytotoxicity at 10 µM: 10.6

# cytotoxicity at 10 µM (compound: COc1cccc(NC(=O)CN(C(C)C)C2CC2)c1 ) is -2.83

The reported cytotoxicity at 10 µM of the compound Cc1noc(CCCNC(=O)N2CCc3ccccc3C2CO)n1 (configuration not stated) was 8.69

// data source = ChEMBL document CHEMBL4513216
